Values compiled from patent US4363805A.

Tested on: mongrel cats
Test: Inotropic and heart-circulatory effectiveness on narcotised cats, intravenous
Format: in vivo, cat
Details: 0.25 mg/kg i.v.; 6 animals
Recorded blood pressure WD for the following molecules
Metric name: blood pressure WD (min)

1) CN(CCCOc1ccccc1)[C@H]1CO[C@H]2[C@@H]1OC[C@@H]2O[N+](=O)[O-] ... 4.1
2) O=[N+]([O-])O[C@H]1CO[C@H]2[C@@H]1OC[C@@H]2NCCCOc1ccccc1 ... 5.1
3) C=CCc1ccccc1OCC(O)CN[C@H]1CO[C@H]2[C@@H]1OC[C@@H]2O[N+](=O)[O-] (some centres unmarked) ... 2.8
4) CCOc1ccccc1OCC(O)CN[C@H]1CO[C@H]2[C@@H]1OC[C@@H]2O[N+](=O)[O-] (some centres unmarked) ... 3.0
5) O=[N+]([O-])O[C@H]1CO[C@H]2[C@@H]1OC[C@H]2NCC(O)COc1cccc2ccccc12 (some centres unmarked) ... 4.8
6) O=[N+]([O-])O[C@H]1CO[C@H]2[C@@H]1OC[C@@H]2NCC(O)COc1cccc2ccccc12 (some centres unmarked) ... 1.9
7) O=[N+]([O-])O[C@H]1CO[C@H]2[C@@H]1OC[C@@H]2NCCCc1ccccc1 ... 3.1
8) N#Cc1ccccc1OCC(O)CN[C@H]1CO[C@H]2[C@@H]1OC[C@@H]2O[N+](=O)[O-] (some centres unmarked) ... 8.5
9) O=[N+]([O-])O[C@H]1CO[C@H]2[C@@H]1OC[C@@H]2NCCCCc1ccccc1 ... 3.2
10) O=[N+]([O-])O[C@H]1CO[C@H]2[C@@H]1OC[C@@H]2NCCCCCc1ccccc1 ... 9.2
11) O=[N+]([O-])O[C@H]1CO[C@H]2[C@@H]1OC[C@@H]2NCC(O)COc1cccc(C(F)(F)F)c1 (some centres unmarked) ... 5.6

###

System: mongrel cats
Assay: Inotropic and heart-circulatory effectiveness on narcotised cats, intravenous
Assay type: in vivo, cat
Conditions: 1.00 mg/kg i.v.; 6 animals
This listing pairs molecules with measured blood pressure WD.
Metric name: blood pressure WD (min)

1. O=[N+]([O-])O[C@H]1CO[C@H]2[C@@H]1OC[C@@H]2NCC(O)COc1cccc(C(F)(F)F)c1 (stereo partly shown) ... 14.7
2. O=[N+]([O-])O[C@H]1CO[C@H]2[C@@H]1OC[C@@H]2NCCCCc1ccccc1 ... 11.2
3. C=CCc1ccccc1OCC(O)CN[C@H]1CO[C@H]2[C@@H]1OC[C@@H]2O[N+](=O)[O-] (stereo partly shown) ... 11.6
4. O=[N+]([O-])O[C@H]1CO[C@H]2[C@@H]1OC[C@@H]2NCCCCCc1ccccc1 ... 22.2

###

Test system: female NMRI-albino mice
Assay: Acute toxicity, intravenous, mice
Type: in vivo
Details: 200 mg/kg i.v., within 24 hours
Metric name: Frequency of death

1. COc1cccc(OC)c1OCCCN[C@H]1CO[C@H]2[C@@H]1OC[C@@H]2O[N+](=O)[O-] ... 3/3
2. CN(CCCCc1ccccc1)[C@H]1CO[C@H]2[C@@H]1OC[C@@H]2O[N+](=O)[O-] ... 6/6
3. CC(=O)Nc1ccc(OCCCN[C@H]2CO[C@H]3[C@@H]2OC[C@@H]3O[N+](=O)[O-])cc1 ... 0/3
4. COc1cc(OC)cc(OCCCN[C@H]2CO[C@H]3[C@@H]2OC[C@@H]3O[N+](=O)[O-])c1 ... 3/3
